Tested on: MS2 coat protein
Assay: apparent Kd, MS2 coat protein; higher = weaker binding; RNA-MaP array; FMN 200 µM where present
Settings: ligand present: flavin mononucleotide; designed as: OFF switch for flavin mononucleotide
Catalogue of apparent Kd readings, one per entry.
propertyMeasured: apparent Kd

{"columns": ["sequenceData", "testedTarget", "propertyMeasured", "observedValue"],
 "data": [
  ["UUGUGCUUAGAGAAGGUUCAAACUACAUAUUGCGCACAUGAGGAUCACCCAUGUUGGUGAAUAAGAAAGGAUAUUUGACUGUAC", "MS2 coat protein", "apparent Kd", "85.2 nM"],
  ["UGUUCUAUGUAGAAGGCCCAUAUCUGUUUUUAGGGAGGAUAUACAUGAGGAUCACCCAUGUGUAGAGCUGGUGGACUGGUCAGC", "MS2 coat protein", "apparent Kd", "40.1 nM"],
  ["GAGCGGAUGUCAGGAUAUCGCCGCGUGAAAAGGCGAGAAGGGACAUGAGGAUCACCCAUGUACUCAUAGGGCCAGCUUGGGCUA", "MS2 coat protein", "apparent Kd", "29.1 nM"],
  ["GACUAGGCAGGAUAUACAUGAGGAUCACCCAUGUGUCUGCGUUAAGCACGUGAAGACGGUAGAAGGGCCUUCAC", "MS2 coat protein", "apparent Kd", "13.5 nM"],
  ["UGAAUGUGAGGAUAUGGUGAGUAGUGCCUGAGCGCUGCUCACCAGAAGGCACAUGAGGAUCACCCAUGUACUUG", "MS2 coat protein", "apparent Kd", "215 nM"],
  ["UAUAUAUAGUAAGGAUAUGUAUAUAUGUUAUAAACAGAAGGUACUGACAUGAGGAUCACCCAUGUUUUAGUGUGGGCAUGUAGA", "MS2 coat protein", "apparent Kd", "96 nM"],
  ["ACUAGAUGAGGAUAUACACAUUUUAGUGUUCCUCUAGAUUAACAUGAGGAUCACCCAUGUAGAAGGCAUCAUUU", "MS2 coat protein", "apparent Kd", "231 nM"],
  ["CGUUUGUAAGGAUAUAGCCACAUUACGAAUAAGUAGUGUGGCUAGAAGGUACAUGAGGAUCACCCAUGUAUGGG", "MS2 coat protein", "apparent Kd", "192 nM"],
  ["UAAUCAUGUCCGUAUGUUUUCAGAGAGGAUAUACAUGCGGGCACCUUAACAUGAGGAUCACCCAUGUAGAAGGCUCUGAAAAUG", "MS2 coat protein", "apparent Kd", "22.5 nM"],
  ["GUGUAGUGAGGAUAUACAUGAGGAUCACCCAUGUGAAUAAGAUAGAAUAAGAUAAAGUGUAGAAGGCAUAGUGU", "MS2 coat protein", "apparent Kd", "31.5 nM"],
  ["ACAUGAGGAUCACCCAUGUACAUGGGUUUAAUUGUGUGUUACGAGGAUAUGUAUUUGAAUUUACAACAGAAGGUGUAUUACUGU", "MS2 coat protein", "apparent Kd", "610 nM"],
  ["UUAAAUUAGUAGAAGGACGGUGAGUAAGAAGUCGUAGGAUAUACAUAAGACAUGAGGAUCACCCAUGUAAGUUUGUUGGGUAUG", "MS2 coat protein", "apparent Kd", "38.4 nM"],
  ["GUUUAGUGAGGAUAUGUGGCGUAGAUCGAGCGCGGUCGGCUACAGAAGGCACAUGAGGAUCACCCAUGUUUCUC", "MS2 coat protein", "apparent Kd", "372 nM"],
  ["UGAAAUCAUGUAGGAUAUGCAUGGCGAAGCUACGCAGAAGGACAUGAGGAUCACCCAUGUUAUAGCUACCCAGUUUGGUGGCAA", "MS2 coat protein", "apparent Kd", "151 nM"],
  ["AAGAAUAGAAAGAUUAAUAUGAAUACAUGAGGAUCACCCAUGUAGGAUAUGCAGCUGAAUCAGCUGCAGAAGGACAAAAUAAAU", "MS2 coat protein", "apparent Kd", "9.08 nM"],
  ["AACAGCUCGUCAGGAUAUAUUAUAUUUAUAUGGCUGAAUGUACAUGAGGAUCACCCAUGUAGUUUGUAGAAGGGACGAGCUGAA", "MS2 coat protein", "apparent Kd", "18.9 nM"],
  ["GGUAGACAUGAGGAUCACCCAUGUGAGGAUAUCGUCAUAGAUGCAAAAGCAUCUAUGACGAGAAGGUACAUGCC", "MS2 coat protein", "apparent Kd", "34.3 nM"],
  ["UGAAAUCAUGUAGGAUAUGCAUGGCGAAGCUACGCAGAAGGACAUGAGGAUCACCCAUGUUCUAGCUACCGAGUACGGUGGCAA", "MS2 coat protein", "apparent Kd", "121 nM"],
  ["ACUCCUCCUGUUAGGAUAUGCAUCGGGCUUCCGCAGCAGAAGGAACAUGAGGAUCACCCAUGUCAAAUAAAAUC", "MS2 coat protein", "apparent Kd", "155 nM"],
  ["UCCGGACAUGAGGAUCACCCAUGUCAGGAUAUACCCGAGGCAGCGAACUCGCUAGCCAGUAGAAGGGACAUGGU", "MS2 coat protein", "apparent Kd", "20.8 nM"],
  ["ACAAAUGGAGGAUAUACAUGAGGAUCACCCAUGUUUAUCCUACAUAUGUGAUACUCAUGUAGAAGGCCAUAUGA", "MS2 coat protein", "apparent Kd", "12.5 nM"],
  ["AACCGCGACCGGCCUGGCACGUCGAGAAGGGUACGUGACCUGCUUUACAUGAGGAUCACCCAUGUACAGGAUAUCGAAUAGCCG", "MS2 coat protein", "apparent Kd", "8.4 nM"],
  ["UGAUCAAAUGUCAGGAUAUGCUGUUGGAAACAACAGCAGAAGGGACAUGAGGAUCACCCAUGUCUUGUCGAUUU", "MS2 coat protein", "apparent Kd", "112 nM"],
  ["AAAUUUAACGAAGGAUAUACUAACAUGAGGAUCACCCAUGUGUGCUUCGUGUUGCUGAAAUUCGGGUAGAAGGUCGUAUACAUA", "MS2 coat protein", "apparent Kd", "145 nM"],
  ["GUCAGCUCGUGAGGAUAUACAUGAGGAUCACCCAUGUGAUCAAUAGCAGCUUCGGCUGCAUACAUGUAGAAGGCACGAGCUGAU", "MS2 coat protein", "apparent Kd", "62.9 nM"],
  ["GGAUAGGACAGAGGAUAUACGCGCUAGAGAUACUAGCAAAAUUUCCUCACAUGAGGAUCACCCAUGUAGAAGGCUGUCCUAUCG", "MS2 coat protein", "apparent Kd", "580 nM"],
  ["AGCCAAGCAGGAUAUGCACGUAAUAACAUGAGGAUCACCCAUGUGACCGAUUUAUGUUCUGCAGAAGGGCUUGGAA", "MS2 coat protein", "apparent Kd", "63.5 nM"],
  ["UUAUACGUUGAGGAUAUGCGAAUUAGUAUAGUUGCAGAAGGCGAUACAUGAGGAUCACCCAUGUUUAUGGGCAU", "MS2 coat protein", "apparent Kd", "341 nM"],
  ["AAGCGCGUAGGAUAUACAUGAGGAUCACCCAUGUGAGGAGGGAGUUGGAGGUGUGGAAGUAGAAGGACGGAGUG", "MS2 coat protein", "apparent Kd", "37.6 nM"]
]}
